B1: RHOBTB1 (parent)
chain: TFGDHHKDRRFAYGRSDVVVLCFS

Variants of: B1
ASSAY NAME: protein stability index of a GFP-peptide fusion (GPS, HEK-293T) (PSI 1-6); higher = more stable;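 further: lentivirally expressed fusions sorted by FACS into six bins by GFP to DsRed ratio, PSI derived from sequencing read proportions per bin multiplied by bin number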
MEASUREMENT PARAMETERS: c terminus: a fixed tail appended
# protein stability index per entry
VALUE TYPE: protein stability index

SEQUENCE INPUT | ENDPOINT VALUE
TFGDHHKDRRFASGRSDVVVLCFS [Y13S] | 2.66
TFGDHHKDRRFADGRSDVVVLCFS [Y13D] | 2.16
TFGDHHKDRRFLYGRSDVVVLCFS [A12L] | 2.48
TFGDHHKDRRFAYGRSDVVRLCFS [V20R] | 1.97
TFGDHHKDRRFAYGRSDVVVLCKS [F23K] | 2.25
TFGDHHKDRRFAYGRSDVVVRCFS [L21R] | 1.96
TFGDHHKDRRFAYGRSDVVVLCES [F23E] | 3.12
TFADHHKDRRFAYGRSDVVVLCFS [G3A] | 1.83
TFGQHHKDRRFAYGRSDVVVLCFS [D4Q] | 3.51
TFGDHHKDRRFAYGRSQVVVLCFS [D17Q] | 2.43
TFGDHHKNRRFAYGRSDVVVLCFS [D8N] | 2.29
TFGDHHKDRRFAGGRSDVVVLCFS [Y13G] | 1.46
TFGDHHKDKRFAYGRSDVVVLCFS [R9K] | 1.97
TFGDHHKDQRFAYGRSDVVVLCFS [R9Q] | 3.83
TFGDHHKDRRFAYGRSDVVVLCDS [F23D] | 3.1
TFGDHHKDRRFAYGRSDVPVLCFS [V19P] | 1.69
TFGDHHKDRKFAYGRSDVVVLCFS [R10K] | 2.21
TFGDHHKDRRFTYGRSDVVVLCFS [A12T] | 2.65
TFRDHHKDRRFAYGRSDVVVLCFS [G3R] | 1.52
TFGDHHKDRRFAIGRSDVVVLCFS [Y13I] | 3.14
TFGDHHKDRRFEYGRSDVVVLCFS [A12E] | 1.93
TFKDHHKDRRFAYGRSDVVVLCFS [G3K] | 1.74
TFGDHHKDGRFAYGRSDVVVLCFS [R9G] | 2.82
NFGDHHKDRRFAYGRSDVVVLCFS [T1N] | 1.89
AFGDHHKDRRFAYGRSDVVVLCFS [T1A] | 2.71
TFGDHHKDRRFKYGRSDVVVLCFS [A12K] | 1.46
TFGDHHKDRRFAQGRSDVVVLCFS [Y13Q] | 2.78
TFGDQHKDRRFAYGRSDVVVLCFS [H5Q] | 2.74
TFGDHHKDRRFAYGRSDVVVLMFS [C22M] | 2.88
TFGDHHDDRRFAYGRSDVVVLCFS [K7D] | 2.76
TFGDHHKDRRFIYGRSDVVVLCFS [A12I] | 3.53
TFGDHHKDRRFAAGRSDVVVLCFS [Y13A] | 1.36
TFGDHHKDRSFAYGRSDVVVLCFS [R10S] | 3.52
TFGDHHKDRRFAYGRQDVVVLCFS [S16Q] | 2.83
TFGDHHKDRRFAYVRSDVVVLCFS [G14V] | 3.71
TFGDHHKHRRFAYGRSDVVVLCFS [D8H] | 2.82
TFGDHHKDRRFAYGNSDVVVLCFS [R15N] | 1.84
TFGDHHKDRRFAYGSSDVVVLCFS [R15S] | 2.34
TFGDHHKDRDFAYGRSDVVVLCFS [R10D] | 2.03
TFGDHHKDRRFAYGRSDVNVLCFS [V19N] | 2.28
TFGDHHKDRRFAYGRSDVVVLQFS [C22Q] | 2.2
TFGDHHKDRRFAYGDSDVVVLCFS [R15D] | 2.36
TFGDHHKDRRFAYGRSMVVVLCFS [D17M] | 3.13
KFGDHHKDRRFAYGRSDVVVLCFS [T1K] | 2.48
TFGDHHKDRRFAYGRSDVKVLCFS [V19K] | 1.92
TFGDHHKDRRFAYGRSDVVVLYFS [C22Y] | 1.07
